B1: HHH_rd1_0493 (parent)
chain: RDEDEKEKIKEALKRGNEDKAKEIAKRANVSPEEYERLRKEAE

# Variants of: B1
# assay.procedure: folding stability dG (cDNA display proteolysis); higher = more stable
# condition.summary: PBS, room temperature
Decision: folding stability dG compared against 2 kcal/mol; not below it gives Satisfied, below it gives Not satisfied.

Would you please look over these solved cases?
mut: A12C
class: Not satisfied
--
mut: E33Y
class: Not satisfied
--
mut: K26I
class: Satisfied
--
mut: S31K
class: Satisfied
--
mut: E41D
class: Satisfied

Ask | Please check the record R15I and state if its folding stability dG is at or above 2 kcal/mol.
Reply | Satisfied

Ask | Please check the record K20Q and state if its folding stability dG is at or above 2 kcal/mol.
Reply | Satisfied

Ask | Please check the record A12R and state if its folding stability dG is at or above 2 kcal/mol.
Reply | Not satisfied

Ask | Please check the record K8L and state if its folding stability dG is at or above 2 kcal/mol.
Reply | Satisfied

Ask | Please check the record S31G and state if its folding stability dG is at or above 2 kcal/mol.
Reply | Satisfied

Ask | Please check the record A42R and state if its folding stability dG is at or above 2 kcal/mol.
Reply | Not satisfied
